target: Androgen Receptor (Homo sapiens, UniProt P10275+P40337, T878A); construct: Compounds have been evaluated in this assay in LNCaP and/or VCaP cells utilizing similar protocols; endogenous in cells; host or cells: LNCaP cells; assay: Androgen Receptor ELISA assay (PathScan AR ELISA) in LNCaP cells: AR degradation, Dmax and DC50; type: cell-based; conditions: highest percentage of Androgen Receptor degradation
Sequence (P10275 whole entry T878A): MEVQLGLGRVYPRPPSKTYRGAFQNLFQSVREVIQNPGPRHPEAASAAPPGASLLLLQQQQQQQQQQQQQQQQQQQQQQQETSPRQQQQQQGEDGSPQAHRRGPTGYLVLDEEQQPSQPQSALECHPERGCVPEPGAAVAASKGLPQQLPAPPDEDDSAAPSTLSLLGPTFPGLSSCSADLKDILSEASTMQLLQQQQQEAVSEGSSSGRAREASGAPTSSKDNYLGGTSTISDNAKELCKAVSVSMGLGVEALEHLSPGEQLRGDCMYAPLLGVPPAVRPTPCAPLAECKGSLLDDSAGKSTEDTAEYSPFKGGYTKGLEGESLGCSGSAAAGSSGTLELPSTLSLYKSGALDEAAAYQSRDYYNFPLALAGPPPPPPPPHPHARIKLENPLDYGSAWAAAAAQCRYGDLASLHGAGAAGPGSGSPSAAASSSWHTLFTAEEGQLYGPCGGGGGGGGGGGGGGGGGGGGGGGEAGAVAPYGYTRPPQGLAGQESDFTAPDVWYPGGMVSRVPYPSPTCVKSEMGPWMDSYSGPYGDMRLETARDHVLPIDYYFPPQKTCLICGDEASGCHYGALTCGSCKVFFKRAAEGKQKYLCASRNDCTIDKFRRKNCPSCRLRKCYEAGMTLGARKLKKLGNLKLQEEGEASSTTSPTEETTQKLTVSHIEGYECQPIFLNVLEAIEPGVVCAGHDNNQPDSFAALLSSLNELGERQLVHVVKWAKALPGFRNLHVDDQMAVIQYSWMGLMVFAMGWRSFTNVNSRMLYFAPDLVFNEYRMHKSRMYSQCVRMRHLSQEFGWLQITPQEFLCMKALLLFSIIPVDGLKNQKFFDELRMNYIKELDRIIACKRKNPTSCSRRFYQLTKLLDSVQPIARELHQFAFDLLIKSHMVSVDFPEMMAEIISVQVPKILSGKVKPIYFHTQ
Sequence (P40337 whole entry): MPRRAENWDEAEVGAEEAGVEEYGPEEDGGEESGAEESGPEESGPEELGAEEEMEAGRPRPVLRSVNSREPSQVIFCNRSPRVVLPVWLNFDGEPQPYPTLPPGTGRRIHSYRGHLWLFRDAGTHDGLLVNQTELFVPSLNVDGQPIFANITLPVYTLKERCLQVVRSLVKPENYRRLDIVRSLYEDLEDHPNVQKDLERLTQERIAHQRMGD
Sequence (Q15369 whole entry partner): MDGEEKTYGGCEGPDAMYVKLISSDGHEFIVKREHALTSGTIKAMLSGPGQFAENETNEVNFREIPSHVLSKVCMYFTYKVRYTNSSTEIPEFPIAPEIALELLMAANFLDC
Sequence (Q15370 whole entry partner): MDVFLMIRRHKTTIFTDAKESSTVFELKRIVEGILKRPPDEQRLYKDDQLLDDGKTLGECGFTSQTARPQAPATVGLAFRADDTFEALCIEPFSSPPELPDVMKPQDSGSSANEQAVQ
Please go through the items and note down their Dmax.

[ask] Please give the measured Dmax for this molecule: Cc1ncsc1-c1ccc(CNC(=O)[C@@H]2C[C@@H](O)CN2C(=O)[C@@H](NC(=O)c2ccc(OCCOC3CCN(C(=O)c4ccc(N5C(=S)N(c6ccc(C#N)c(C(F)(F)F)c6)C(=O)C5(C)C)cc4)CC3)cc2)C(C)(C)C)cc1 [Example 291]
[reply] < 25%

[ask] Please give the measured Dmax for this molecule: Cc1ncsc1-c1ccc(CNC(=O)[C@@H]2C[C@@H](O)CN2C(=O)[C@@H](NC(=O)CCCOc2ccc(CCOc3ccc(N4C(=S)N(c5ccc(C#N)c(C(F)(F)F)c5)C(=O)C4(C)C)cc3)cc2)C(C)(C)C)cc1 [Example 302]
[reply] > 71%

[ask] Please give the measured Dmax for this molecule: CC(=O)N[C@H](C(=O)N1C[C@H](O)C[C@H]1C(=O)NCc1ccc(-c2scnc2C)cc1OCCOCCOCCOc1ccc(N2C(=S)N(c3ccc(C#N)c(C(F)(F)F)c3)C(=O)C2(C)C)cc1)C(C)C [Example 281]
[reply] 51 to 70%

[ask] Please give the measured Dmax for this molecule: Cc1ncsc1-c1ccc(CNC(=O)[C@@H]2C[C@@H](O)CN2C(=O)[C@@H](NC(=O)COCCCOCCCOc2ccc(CN3C(=S)N(c4ccc(C#N)c(C(F)(F)F)c4)C(=O)C3(C)C)cc2)C(C)(C)C)cc1 [Example 307]
[reply] 51 to 70%

[ask] Please give the measured Dmax for this molecule: Cc1ncsc1-c1ccc(CNC(=O)[C@@H]2C[C@@H](O)CN2C(=O)[C@@H](NC(=O)c2ccc(OCCOCCOc3ccc(N4C(=S)N(c5ccc(C#N)c(C(F)(F)F)c5)C(=O)C4(C)C)cc3)cc2)C(C)(C)C)cc1 [Example 264]
[reply] < 25%

[ask] Please give the measured Dmax for this molecule: Cc1ncsc1-c1ccc(CNC(=O)[C@@H]2C[C@@H](O)CN2C(=O)[C@@H](NC(=O)C(C)(C)C(O)CCCOCCCCCOc2ccc(N3C(=S)N(c4ccc(C#N)c(C(F)(F)F)c4)C(=O)C3(C)C)cc2)C(C)(C)C)cc1 (some centres unmarked) [Example 310]
[reply] 26 to 50%

[ask] Please give the measured Dmax for this molecule: Cc1ncsc1-c1ccc(CNC(=O)[C@@H]2C[C@@H](O)CN2C(=O)[C@@H](NC(=O)COCCOc2cccc(CCCOc3ccc(N4C(=S)N(c5ccc(C#N)c(C(F)(F)F)c5)C(=O)C4(C)C)cc3)c2)C(C)(C)C)cc1 [Example 296]
[reply] > 71%

[ask] Please give the measured Dmax for this molecule: Cc1ncsc1-c1ccc(CNC(=O)[C@@H]2C[C@@H](O)CN2C(=O)[C@@H](NC(=O)CCCCOc2ccc(CCCOc3ccc(N4C(=S)N(c5ccc(C#N)c(C(F)(F)F)c5)C(=O)C4(C)C)cc3)cc2)C(C)(C)C)cc1 [Example 259]
[reply] > 71%

[ask] Please give the measured Dmax for this molecule: Cc1ncsc1-c1ccc(CNC(=O)[C@@H]2C[C@@H](O)CN2C(=O)[C@@H](NC(=O)CCOCCOc2ccc(N3C(=S)N(c4ccc(C#N)c(C(F)(F)F)c4)C(=O)C3(C)C)cc2)C(C)(C)C)cc1 [Example 233]
[reply] 51 to 70%

[ask] Please give the measured Dmax for this molecule: Cc1ncsc1-c1ccc(CNC(=O)C2C[C@@H](OC(C)(C)C)CN2C(=O)[C@H](C(C)C)N2Cc3ccccc3C2=O)c(OCCOCCOCCOc2ccc(N3C(=O)N(c4ccc(C#N)c(C(F)(F)F)c4)C(=O)C3(C)C)cc2)c1 (some centres unmarked) [Example 234]
[reply] 26 to 50%

[ask] Please give the measured Dmax for this molecule: Cc1ncsc1-c1ccc(CNC(=O)[C@@H]2C[C@@H](O)CN2C(=O)[C@H](C(C)C)N2Cc3ccccc3C2=O)c(OCCOCCOCCCCCOCCOCCOc2ccc(N3C(=S)N(c4ccc(C#N)c(C(F)(F)F)c4)C(=O)C3(C)C)cc2)c1 [Example 218]
[reply] 26 to 50%

[ask] Please give the measured Dmax for this molecule: Cc1ncsc1-c1ccc(CNC(=O)[C@@H]2C[C@@H](O)CN2C(=O)[C@@H](NC(=O)CCCOc2ccc(N3C(=S)N(c4ccc(C#N)c(C(F)(F)F)c4)C(=O)C3(C)C)cc2)C(C)(C)C)cc1 [Example 237]
[reply] 26 to 50%

[ask] Please give the measured Dmax for this molecule: Cc1ncsc1-c1ccc(CNC(=O)C2C[C@@H](O)CN2C(=O)[C@H](C(C)C)N2Cc3ccccc3C2=O)c(OCCOCCOCCOc2ccc(N3C(=O)N(c4ccc(C#N)c(C(F)(F)F)c4)C(=O)C3(C)C)cc2)c1 (some centres unmarked) [Example 235]
[reply] 51 to 70%

[ask] Please give the measured Dmax for this molecule: Cc1ncsc1-c1ccc(CNC(=O)[C@@H]2C[C@@H](O)CN2C(=O)[C@@H](NC(=O)c2ccc(C3CCN(CCCOc4ccc(N5C(=S)N(c6ccc(C#N)c(C(F)(F)F)c6)C(=O)C5(C)C)cc4)CC3)cc2)C(C)(C)C)cc1 [Example 289]
[reply] 26 to 50%

[ask] Please give the measured Dmax for this molecule: Cc1ncsc1-c1ccc(CNC(=O)[C@@H]2C[C@@H](O)CN2C(=O)[C@@H](NC(=O)CCCCOCCCCCOc2ccc(N3C(=S)N(c4ccc(C#N)c(C(F)(F)F)c4)C(=O)C3(C)C)cc2)C(C)(C)C)cc1 [Example 246]
[reply] > 71%

[ask] Please give the measured Dmax for this molecule: CCC(=O)N[C@H](C(=O)N1C[C@H](O)C[C@H]1C(=O)NCc1ccc(-c2scnc2C)cc1OCCOCCOCCOc1ccc(N2C(=O)N(c3ccc(C#N)c(C(F)(F)F)c3)C(=O)C2(C)C)cc1)C(C)(C)C [Example 268]
[reply] 51 to 70%

[ask] Please give the measured Dmax for this molecule: Cc1ncsc1-c1ccc(CNC(=O)[C@@H]2C[C@@H](O)CN2C(=O)[C@@H](NC(=O)C(C)C)C(C)(C)C)c(OCCOCCOCCOc2ccc(N3C(=S)N(c4ccc(C#N)c(C(F)(F)F)c4)C(=O)C3(C)C)cc2)c1 [Example 269]
[reply] 51 to 70%

Cited source: patent US11427548B2
